target: D(1A) dopamine receptor (Homo sapiens); assay: D1 CRE-luciferase signal change, two-sided – cell-based, HEK293 D1, dopamine EC30, D1 allosteric modulator project, primary screen (AID 641); details: dopamine EC30 potentiation, at 10 µM, actives deviate in either direction
About 3,400 (5.9%) of roughly 58,000 compounds were called active. The full list was thinned out, with actives kept by preference.
Each record here notes measured B-score.
Reported endpoint: B-score

> print(dat)
                                    compound                            assay.system  reported.endpoint  measured.number
 1  O=C(CSc1nc2ncccc2[nH]1)Nc1ccc2c(c1)OCCO2  D(1A) dopamine receptor (Homo sapiens)            B-score            0.287
 2  Cc1ccnc(N2CCCC(C(=O)Nc3cc(F)ccc3C)C2)n1 (stereo unspecified)  D(1A) dopamine receptor (Homo sapiens)            B-score           -0.197
 3  CCOC(=O)c1c(NC(=O)CSc2nnc(C)c(=O)[nH]2)sc2c1CCC2  D(1A) dopamine receptor (Homo sapiens)            B-score             1.36
 4         CCOCC(=O)Nc1sc2c(c1C(=O)OCC)CCCC2  D(1A) dopamine receptor (Homo sapiens)            B-score          -0.0785
 5        CC(=O)Nc1ccc(-c2nn3c(C)nnc3s2)cc1C  D(1A) dopamine receptor (Homo sapiens)            B-score            0.141
 6  C=CCOC(=O)C1=C(C)OC(N)=C(C#N)C1c1ccc(F)cc1 (stereo unspecified)  D(1A) dopamine receptor (Homo sapiens)            B-score            0.241
 7  CCc1nnc(NC(=O)C2CCCN2S(=O)(=O)c2ccccc2)s1 (stereo unspecified)  D(1A) dopamine receptor (Homo sapiens)            B-score          -0.0231
 8      Cn1c(Cc2csc(N)n2)nnc1SC/C=C/c1ccccc1  D(1A) dopamine receptor (Homo sapiens)            B-score            0.477
 9  CC(CNC(=O)c1ccc(Br)o1)NC(=O)c1ccc(Br)o1 (stereo unspecified)  D(1A) dopamine receptor (Homo sapiens)            B-score           -0.012
10  COC(=O)c1c(NC(=O)CSc2nc3c(c(=O)n(C)c(=O)n3C)n2C(C)C)sc(C)c1C  D(1A) dopamine receptor (Homo sapiens)            B-score             3.35
11  CN(CCCC(=O)Nc1nccs1)S(=O)(=O)c1ccc(Cl)cc1  D(1A) dopamine receptor (Homo sapiens)            B-score             0.49
